biological target: chimeric Caspase-9 polypeptide; assay: Caspase mutant classes and basal activity (Table 3); assay type: cell-based, human; settings: class heading of Table 3; ligand IC50
Sequence (as listed by the source, change not shown): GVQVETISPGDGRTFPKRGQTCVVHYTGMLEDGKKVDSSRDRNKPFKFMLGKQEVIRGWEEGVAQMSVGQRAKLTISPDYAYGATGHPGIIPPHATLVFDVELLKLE

Molecule	IC50
D330A-S196A (protein) GFGDVGALESLRGNADLAYILSMEPCGHCLIINNVNFCRESGLRTRTGSNIDCEKLRRRFSALHFMVEVKGDLTAKKMVLALLELAQQDHGALDCCVVVILSHGCQASHLQFPGAVYGTDGCPVSVEKIVNIFNGTSCPSLGGKPKLFFIQACGGEQKDHGFEVASTSPEDESPGSNPEPDATPFQEGLRTFDQLAAISSLPTPSDIFVSYSTFPGFVSWRDPKSGSWYVETLDDIFEQWAHSEDLQSLLLRVANAVSVKGIYKQMPGCFNFLRKKLFFKTS	higher IC50
S183A (protein) GFGDVGALESLRGNADLAYILSMEPCGHCLIINNVNFCRESGLRTRTGANIDCEKLRRRFSSLHFMVEVKGDLTAKKMVLALLELAQQDHGALDCCVVVILSHGCQASHLQFPGAVYGTDGCPVSVEKIVNIFNGTSCPSLGGKPKLFFIQACGGEQKDHGFEVASTSPEDESPGSNPEPDATPFQEGLRTFDQLDAISSLPTPSDIFVSYSTFPGFVSWRDPKSGSWYVETLDDIFEQWAHSEDLQSLLLRVANAVSVKGIYKQMPGCFNFLRKKLFFKTS	higher IC50
